- System: H1581 (FGFR1 amp)
- assay_info: In vitro growth inhibition of H1581 tumor cells (MTT/CCK8)
- Assay type: cell-based, Human
- condition_description: Homo sapiens, NCI-H1581; in vitro growth inhibition (or induction of apoptosis), cells cultured 3 to 5 days, MTT (CCK8); read-out: IC50 H1581 (FGFR1 amp)
I'd appreciate it if you could supply IC50 values for the items below.
Output spec: scalar in nM, unitless text.

# return recorded IC50 for entry CC(C)(C)c1cc(NC(=O)Nc2ccc(Oc3ccnc4cc(OCCCN5CCOCC5)c(C(N)=O)cc34)cc2Cl)[nH]n1
97.3

For COc1cc2nccc(Oc3ccc(NC(=O)Nc4cc(C(C)(C)C)n[nH]4)cc3Cl)c2cc1NC(C)=O , write its IC50.
9.56

Answer with reported IC50 of COc1cc2nccc(Oc3ccc(NC(=O)Nc4cc(C(C)(C)C)on4)cc3)c2cc1C(N)=O
16.1

Provide measured IC50 value, entry: CNC(=O)c1cc2c(Oc3ccc(NC(=O)Nc4cc(C(C)(C)C)nn4C)c(Cl)c3Cl)ccnc2cc1OCCOC
1.31

----------
- Tested on: KATO III (FGFR2 amp)
- assay_info: In vitro growth inhibition of KATO III tumor cells (MTT/CCK8)
- Type: cell-based, Human
- condition_description: Homo sapiens, KATO III; in vitro growth inhibition (or induction of apoptosis), cells cultured 3 to 5 days, MTT (CCK8); read-out: IC50 KATO III (FGFR2 amp)
readout: IC50 (nM)
Report the figure in nM without appending any unit label.

Look up and report measured IC50 for this entry: COc1cc2nccc(Oc3ccc(NC(=O)Nc4cc(C(C)(C)C)n[nH]4)cc3C)c2cc1NC(C)=O
4.17

Complete the entry with IC50 for COCCOc1cc2nccc(Oc3ccc(NC(=O)Nc4cc(C(C)(C)C)nn4CCN4CCOCC4)cc3)c2cc1NC(C)=O
0.27

Give IC50 for the following compound: COCCN1CCN(CCCOc2cc3nccc(Oc4ccc(NC(=O)Nc5cc(C(C)(C)C)n[nH]5)c(Cl)c4)c3cc2C(N)=O)CC1
1.92

Name the recorded IC50 of the compound listed here: COc1cc2nccc(Oc3ccc(NC(=O)N(C)c4cc(C(C)(C)C)on4)c(Cl)c3)c2cc1C(N)=O
103

Indicate its recorded IC50; the compound in question is CNC(=O)c1cc2c(Oc3ccc(NC(=O)Nc4cc(C(C)(C)C)nn4C)c(C)c3)ccnc2cc1OC
0.31

----------
- Test system: H1581 (FGFR1 amp)
- assay_info: In vitro growth inhibition of H1581 tumor cells (MTT/CCK8)
- Assay type: cell-based, Human
- condition_description: Homo sapiens, NCI-H1581; in vitro growth inhibition (or induction of apoptosis), cells cultured 3 to 5 days, MTT (CCK8); read-out: IC50 H1581 (FGFR1 amp)
For each entry below, report its IC50 value.
# number only, unit nM dropped from output

Report IC50 for COc1cc2nccc(Oc3ccc(NC(=O)Nc4cc(C(C)(C)C)no4)c(Cl)c3)c2cc1C(N)=O
0.86

Please report IC50 for the following molecule: COCCOc1cc2nccc(Oc3ccc(NC(=O)Nc4cc(C(C)(C)C)nn4C4CCN(C)CC4)cc3)c2cc1NC(C)=O
19.5

Name the recorded IC50 of the molecule listed here: CC(C)(C)c1cc(NC(=O)Nc2ccc(Oc3ccnc4cc(OCCCN5CCN(c6ccccc6)CC5)c(C(N)=O)cc34)cc2Cl)[nH]n1
326

Annotate the molecule CCn1nc(C(C)(C)C)cc1NC(=O)Nc1ccc(Oc2ccnc3cc(OC)c(C(N)=O)cc23)cc1Cl with its measured IC50.
9.03

----------
- Tested on: H1703 (PDGFRa amp)
- assay_info: In vitro growth inhibition of H1703 tumor cells (MTT/CCK8)
- Assay type: cell-based, Human
- condition_description: Homo sapiens, NCI-H1703; in vitro growth inhibition (or induction of apoptosis), cells cultured 3 to 5 days, MTT (CCK8); read-out: IC50 H1703 (PDGFRa amp)
Task for the reader: assign each of the following molecules its reported IC50.
Response body: numeric value in nM, unit text excluded.

Annotate the molecule COc1cc2nccc(Oc3ccc(NC(=O)Nc4cc(C(C)(C)C)on4)cc3)c2cc1C(N)=O with its measured IC50.
9.45

Check the records and state IC50 for COc1cc2nccc(Nc3ccc(NC(=O)Nc4cc(C(C)(C)C)n[nH]4)cc3C)c2cc1C(N)=O
605

Answer with the recorded IC50 for the molecule listed here: CCn1nc(C(C)(C)C)cc1NC(=O)Nc1ccc(Oc2ccnc3cc(OC)c(C(N)=O)cc23)cc1Cl
9.2

Identify measured IC50 corresponding to COc1cc2nccc(Oc3ccc(NC(=O)Nc4cc(C(C)(C)C)nn4CCN4CCOCC4)c(Cl)c3)c2cc1C(N)=O
25

Query IC50 for COCCNC(=O)c1cc2c(Oc3ccc(NC(=O)Nc4cc(C(C)(C)C)on4)c(Cl)c3)ccnc2cc1OC
168

Please list IC50 recorded for the molecule CNC(=O)c1cc2c(Oc3ccc(NC(=O)Nc4cc(C(C)(C)C)nn4C4CCCC4)c(Cl)c3)ccnc2cc1OC
25.9

Item COc1cc2nccc(Nc3ccc(NC(=O)Nc4cc(C(C)(C)C)on4)cc3Cl)c2cc1C(N)=O : provide IC50
202

// Input: COc1cc2nccc(Oc3ccc(NC(=O)Nc4cc(C(C)(C)C)n[nH]4)c(Cl)c3Cl)c2cc1C(N)=O . Output its IC50 only.
6.44

Give the value of IC50 reported for the following: CC(C)(C)c1cc(NC(=O)Nc2ccc(Oc3ccnc4cc(OCCN5CCCCC5)c(C(N)=O)cc34)cc2Cl)[nH]n1
127

Annotate the molecule COc1cc2nccc(Oc3ccc(NC(=O)Nc4cc(C(C)(C)C)n[nH]4)c(Cl)c3C)c2cc1C(N)=O with its measured IC50.
17.3

Complete the entry with IC50 for C=CC(=O)Nc1cc2c(Oc3ccc(NC(=O)Nc4cc(C(C)(C)C)n[nH]4)cc3Cl)ccnc2cc1OC
71.9

Indicate the recorded IC50 value for this molecule: COCCNC(=O)c1cc2c(Oc3ccc(NC(=O)Nc4cc(C(C)(C)C)n[nH]4)c(Cl)c3)ccnc2cc1OC
93.1

Indicate the recorded IC50 value for this molecule: COc1cc2nccc(Nc3ccc(NC(=O)Nc4cc(C(C)(C)C)on4)cc3C)c2cc1C(N)=O
128

Look up IC50 of COc1cc2nccc(Oc3ccc(NC(=O)Nc4cc(C(C)(C)C)on4)c(Br)c3)c2cc1C(N)=O and report it.
16.6

----------
Give measured IC50 for each item. Keep answers brief.
- Test system: H1581 (FGFR1 amp)
- assay_info: In vitro growth inhibition of H1581 tumor cells (MTT/CCK8)
- Type: cell-based, Human
- condition_description: Homo sapiens, NCI-H1581; in vitro growth inhibition (or induction of apoptosis), cells cultured 3 to 5 days, MTT (CCK8); read-out: IC50 H1581 (FGFR1 amp)

Look up and report IC50, with H1581 (FGFR1 amp) as system, for COc1cc2nccc(Oc3ccc(NC(=O)Nc4cc(C(C)(C)C)on4)c(Cl)c3)c2cc1C(N)=O
3.35 nM

For H1581 (FGFR1 amp), give the measured IC50 of the entry CNC(=O)c1cc2c(Oc3ccc(NC(=O)Nc4cc(C(C)(C)C)nn4C)cc3Cl)ccnc2cc1OC
79.9 nM

// output IC50; input COc1cc2nccc(Nc3ccc(NC(=O)Nc4cc(C(C)(C)C)n[nH]4)c(Cl)c3)c2cc1C(N)=O ; system H1581 (FGFR1 amp)
254 nM

Write IC50 of COc1cc2nc(Cl)cc(Oc3ccc(NC(=O)Nc4cc(C(C)(C)C)nn4C)c(Cl)c3)c2cc1C(N)=O ; system used: H1581 (FGFR1 amp)
> 1000 nM

Enter recorded IC50 with H1581 (FGFR1 amp) for CCC(=O)Nc1cc2c(Oc3ccc(NC(=O)Nc4cc(C(C)(C)C)on4)c(Cl)c3)ccnc2cc1OC here.
17.4 nM

Report IC50 under test system H1581 (FGFR1 amp) for COCCN1CCN(CCCOc2cc3nccc(Oc4ccc(NC(=O)Nc5cc(C(C)(C)C)n[nH]5)c(Cl)c4)c3cc2C(N)=O)CC1 .
14.2 nM

For H1581 (FGFR1 amp), give the measured IC50 of the entry CNC(=O)c1cc2c(Oc3ccc(NC(=O)Nc4cc(C(C)(C)C)n[nH]4)c(C(F)(F)F)c3)ccnc2cc1OC
51.4 nM

----------
- System: KYSE70
- assay_info: In vitro growth inhibition of PI3KCA amplified/mutant tumor cells KYSE70
- Format: cell-based
- condition_description: Homo sapiens, KYSE-70; KYSE70; PI3KCA amp; KIT G779C; read-out: IC50 growth inhibition
readout: pIC50
Scale: pIC50 equals -log10([C]), with [C] in mol/L.

Answer with the recorded pIC50 for the molecule listed here: CN1CCN(CCCOc2cc3nccc(Oc4ccc(NC(=O)Nc5cc(C(C)(C)C)n[nH]5)c(Cl)c4Cl)c3cc2C(N)=O)CC1 [Compound 95]
7.72

Consider the molecule COCCOc1cc2nccc(Oc3ccc(NC(=O)Nc4cc(C(C)(C)C)n[nH]4)c(Cl)c3)c2cc1NC(C)=O [Compound 66] . State its measured pIC50.
7.53

Complete the entry with pIC50 for COc1cc2nccc(Oc3ccc(NC(=O)Nc4cc(C(C)(C)C)nn4C)c(Cl)c3Cl)c2cc1C(N)=O [Compound 38]
8.01
